Target: recombinant human MMP16 (Homo sapiens)
Assay: MMP inhibition on isolated enzymes, fluorigenic peptide substrate
Format: biochemical
Conditions: recombinant human MMP16, substrate ZGly-Gly-ArgAMC; read-out: IC50 (nM) values on isolated enzymes MMP-16
assay.metric: IC50 (nM)
Give a bare numeral; the unit nM is implied.

Measured IC50, O=C1CCC(=O)N(c2ccc(N3CCN(C4(c5ccc(-c6ccccc6)cc5)C(=O)NC(=O)NC4=O)CC3)cc2)C1 : 20

====

Target: recombinant human MMP14 (Homo sapiens, UniProt P50281)
Test: MMP inhibition on isolated enzymes, fluorigenic peptide substrate
Type: biochemical
Conditions: recombinant human MMP14, substrate ZGly-Gly-ArgAMC; read-out: IC50 (nM) values on isolated enzymes MMP-14
assay.metric: IC50 (nM)
Give a bare numeral; the unit nM is implied.

Measured IC50, O=C1CCC(=O)N(c2ccc(N3CCN(C4(c5ccc(-c6ccccc6)cc5)C(=O)NC(=O)NC4=O)CC3)cc2)C1 : 23

====

The following compounds are listed with their measured IC50 values.
Target: recombinant human MMP16 (Homo sapiens, UniProt P51512)
Assay: MMP inhibition on isolated enzymes, fluorigenic peptide substrate
Assay type: biochemical
Give a bare numeral; the unit nM is implied.

Measured IC50, O=C1NC(=O)C(c2ccc(-c3ccccc3)cc2)(N2CCN(c3ccc(N4C(=O)CCC4=O)cc3)CC2)C(=O)N1 [example 4] : 21

Measured IC50, O=C(O)CCCC(=O)Nc1ccc(N2CCN(C3(c4ccc(-c5ccccc5)cc4)C(=O)NC(=O)NC3=O)CC2)cc1 [example 3] : 49

Measured IC50, O=C(O)CCC(=O)Nc1ccc(N2CCN(C3(c4ccc(-c5ccccc5)cc4)C(=O)NC(=O)NC3=O)CC2)cc1 [example 2] : 39

Measured IC50, O=C1NC(=O)C(c2ccc(-c3ccccc3)cc2)(N2CCN(c3ccc([N+](=O)[O-])cc3)CC2)C(=O)N1 [Ro 28-2653, reference compound] : 91

====

Target: recombinant human MMP14 (Homo sapiens, UniProt P50281)
Test: MMP inhibition on isolated enzymes, fluorigenic peptide substrate
Format: biochemical
The following compounds are listed with their measured pIC50 values.
Notebook: values listed as pIC50 are -log10 of the concentration (mol/L).

A selection of reference data follows.
compound: O=C1NC(=O)C(c2ccc(-c3ccccc3)cc2)(N2CCN(c3ccc([N+](=O)[O-])cc3)CC2)C(=O)N1 [Ro 28-2653, reference compound]
quantitative.readout: 7.02

compound: O=C(O)CCC(=O)Nc1ccc(N2CCN(C3(c4ccc(-c5ccccc5)cc4)C(=O)NC(=O)NC3=O)CC2)cc1
quantitative.readout: 7.54

compound: O=C(O)CCCC(=O)Nc1ccc(N2CCN(C3(c4ccc(-c5ccccc5)cc4)C(=O)NC(=O)NC3=O)CC2)cc1
quantitative.readout: 7.59

Measured pIC50, O=C1NC(=O)C(c2ccc(-c3ccccc3)cc2)(N2CCN(c3ccc(N4C(=O)CCC4=O)cc3)CC2)C(=O)N1 : 7.89
